Conditions: 298.15 K; 101.33 kPa; Liquid
recorded metric: mass density (kg/m3)
# value in kg/m3; strip the unit string

Take a look at these entries with their results.
q: Data request, read-out mass density, for `CC(C)O`
a: 780.72

q: Data request, read-out mass density, for `CC(C)CCO`
a: 804.18

q: Data request, read-out mass density, for `CCCCCO`
a: 810.68

q: Data request, read-out mass density, for `CCC(O)CC`
a: 815.3

q: Data request, read-out mass density, for `CCC(C)(C)O`
a: 804.01

New cases:
q: Data request, read-out mass density, for `CC(C)CO`
a: 797.63

q: Data request, read-out mass density, for CCC(C)CO (configuration not stated)
a: 814.54

q: Data request, read-out mass density, for `CCCO`
a: 799.52

q: Data request, read-out mass density, for `CCCCO`
a: 805.62

---

Consider the following compounds and their measured molar heat capacity at constant pressure readings.
Assay: molar heat capacity at constant pressure
Conditions: 298.15 K; 101.33 kPa; Liquid; Flow calorimetry
± gives the expanded uncertainty stated by the source.
Give the number first and the unit second.

q: Data request, read-out molar heat capacity at constant pressure, for CC(C)C(C)O (stereo not drawn)
a: 249.5 ± 2.5 J/K/mol

q: Data request, read-out molar heat capacity at constant pressure, for CCC(C)CO (stereo not drawn)
a: 215 ± 2.1 J/K/mol

q: Data request, read-out molar heat capacity at constant pressure, for `CCCCO`
a: 177.1 ± 2 J/K/mol

q: Data request, read-out molar heat capacity at constant pressure, for `CCCCCO`
a: 208.8 ± 2.4 J/K/mol

q: Data request, read-out molar heat capacity at constant pressure, for CCCC(C)O (stereo not drawn)
a: 235.3 ± 2.6 J/K/mol

New cases:
q: Data request, read-out molar heat capacity at constant pressure, for `CCC(C)(C)O`
a: 251.1 ± 2.5 J/K/mol

q: Data request, read-out molar heat capacity at constant pressure, for CCC(C)O (stereo not drawn)
a: 197.8 ± 1.8 J/K/mol

q: Data request, read-out molar heat capacity at constant pressure, for `CCCO`
a: 144.3 ± 1.6 J/K/mol

---

Test: molar heat capacity at constant pressure
Conditions: 298.15 K; 101.33 kPa; Liquid; Flow calorimetry
Consider the following compounds and their measured molar heat capacity at constant pressure readings.
# value in J/K/mol; strip the unit string

Take a look at these entries with their results.
q: Data request, read-out molar heat capacity at constant pressure, for `CCC(O)CC`
a: 254.6

q: Data request, read-out molar heat capacity at constant pressure, for `CC(C)O`
a: 155.2

q: Data request, read-out molar heat capacity at constant pressure, for `CC(C)CCO`
a: 209.3

New cases:
q: Data request, read-out molar heat capacity at constant pressure, for `CC(C)CO`
a: 181.9

---

Conditions: 298.15 K; 101.33 kPa; Liquid
Consider the following compounds and their measured mass density readings.
# value in kg/m3; strip the unit string

q: Data request, read-out mass density, for CC(C)C(C)O (stereo not drawn)
a: 812.31

q: Data request, read-out mass density, for CCCC(C)O (stereo not drawn)
a: 804.55

Here is the next item to consider.
q: Data request, read-out mass density, for CCC(C)O (stereo not drawn)
a: 802.07
